Recorded values, source patent US20200131669A1.

Experiment: Caco-2 membrane permeability, improved method as used in the following Examples (96-well, 20 to 24 h preincubation)
Assay type: in vitro ADME
Conditions: human, Caco-2, Caco-2 (cm/sec)
Positions of bridges follow the written chain, without caps; N, C: chain ends. Non-standard residues stand in square brackets, D forms with d. Residues, ends and D or L forms follow the SMILES beside them. *: point of attachment. NMeF = CN[C@@H](Cc1ccccc1)C(=O)O; NMeL = CN[C@@H](CC(C)C)C(=O)O; NMeA = CN[C@@H](C)C(=O)O; Piperidide = C1CCN(*)CC1; tBu = CC(C)(C)*
readoutType: Papp A→B at 180 min (×10⁻⁶ cm/s)
Numbers only, in ×10⁻⁶ cm/s.

>  <molecule>
CC(C)C[C@@H]1NC(=O)[C@H](Cc2ccccc2)N(C)C(=O)[C@H](COC(C)(C)C)NC(=O)[C@H](Cc2ccccc2)N(C)C(=O)[C@H](Cc2ccccc2)N(C)C(=O)[C@H](CC(C)C)N(C)C(=O)[C@@H](CC(C)C)NC(=O)C[C@@H](C(=O)N2CCCCC2)NC(=O)[C@H](Cc2ccccc2)N(C)C(=O)[C@H]([C@@H](C)O)NC(=O)[C@H](CC(C)C)N(C)C1=O [pd243] ([dL][NMeL][NMeF][NMeF]S(tBu)[NMeF]L[NMeL]T[NMeF]D-Piperidide; lactam N-11)

>  <Papp A→B at 180 min, ×10⁻⁶ cm/s>
0.057

$$$$

Ask: Which Papp A→B at 180 min is reported for this molecule? CC(C)C[C@H]1C(=O)N[C@H](C(=O)N(C)[C@@H](Cc2ccccc2)C(=O)N[C@@H](C)C(=O)N2CCCCC2)CC(=O)N(C)[C@@H](C)C(=O)N[C@@H]([C@@H](C)O)C(=O)N(C)[C@@H](C)C(=O)N(C)[C@@H](CC(C)C)C(=O)N[C@@H](C(C)C)C(=O)N(C)[C@@H](Cc2ccccc2)C(=O)N[C@@H](Cc2ccccc2)C(=O)N1C [pd212] ([NMeA]T[NMeA][NMeL]V[NMeF]F[NMeL]D[NMeF]A-Piperidide; lactam N-9)
Reply: 1.4
